Hello, the source for this data is patent US11648315B2, in case you need it.

# System: BJAB
# Procedure Details: In vitro efficacy of free drug silvestrol compounds, BJAB
# Assay type: cell-based
# Details: Homo sapiens; BJAB cell line
Assay Endpoint: IC50 (nM)
Numbers only, in nM.

(Q) Name the recorded IC50 of the compound listed here: COC(=O)[C@H]1[C@@H](O)[C@@]2(O)c3c(OC)cc(O[C@@H]4O[C@@H](CCN)CO[C@H]4OC)cc3O[C@@]2(c2ccc(OC)cc2)[C@@H]1c1ccccc1 [amino silvestrol analog]
(A) 0.81

====

# Tested on: T-47D
# Procedure Details: In vitro efficacy of free drug silvestrol compounds, T-47D
# Type: cell-based
# Details: Homo sapiens, T47D; T-47D cell line
Assay Endpoint: IC50 (nM)
Numbers only, in nM.

(Q) Name the recorded IC50 of the molecule listed here: COC(=O)[C@H]1[C@@H](O)[C@@]2(O)c3c(OC)cc(O[C@@H]4O[C@@H](CCN)CO[C@H]4OC)cc3O[C@@]2(c2ccc(OC)cc2)[C@@H]1c1ccccc1 [amino silvestrol analog]
(A) 1
